Kindly state fold difference in affinity vs original for each of the entries shown.
Tgt: T1, IL-1β (UniProt P01584 117-269)
T1 construct: Antigen immobilised on the Biacore chip
Assay info: Biacore, periplasmic extract
A bare number is not enough; add the unit after it.

Lab note: measured fold difference in affinity vs original of XPA23 light chain L96N (Fab, V domains shown) VH: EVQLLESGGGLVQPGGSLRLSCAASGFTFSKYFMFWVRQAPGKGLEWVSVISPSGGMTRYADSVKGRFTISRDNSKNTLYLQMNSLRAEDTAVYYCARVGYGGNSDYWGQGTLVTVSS VL: DIQMTQSPSSVSASVGDRLTIICRASQDINRWLAWYQQTPGNAPKLLIHSATSLQSGVPSRFSGSGSGTDFTLTINSLQPEDFATYYCQQADSFPNTFGGGTKVEIK was 0.06 fold

Lab note: measured fold difference in affinity vs original of XPA23 light chain N30I (Fab, V domains shown) VH: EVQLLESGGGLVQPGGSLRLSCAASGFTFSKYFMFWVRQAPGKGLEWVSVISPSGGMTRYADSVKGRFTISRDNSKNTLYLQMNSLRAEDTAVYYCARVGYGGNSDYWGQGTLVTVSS VL: DIQMTQSPSSVSASVGDRLTIICRASQDIIRWLAWYQQTPGNAPKLLIHSATSLQSGVPSRFSGSGSGTDFTLTINSLQPEDFATYYCQQADSFPLTFGGGTKVEIK was 0.65 fold

Lab note: measured fold difference in affinity vs original of XPA23 light chain H49D (Fab, V domains shown) VH: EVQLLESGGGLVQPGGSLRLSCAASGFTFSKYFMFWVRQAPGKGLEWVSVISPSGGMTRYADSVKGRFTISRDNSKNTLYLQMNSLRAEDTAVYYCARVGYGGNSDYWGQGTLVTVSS VL: DIQMTQSPSSVSASVGDRLTIICRASQDINRWLAWYQQTPGNAPKLLIDSATSLQSGVPSRFSGSGSGTDFTLTINSLQPEDFATYYCQQADSFPLTFGGGTKVEIK was 0.11 fold

Lab note: measured fold difference in affinity vs original of XPA23 light chain Q27L (Fab, V domains shown) VH: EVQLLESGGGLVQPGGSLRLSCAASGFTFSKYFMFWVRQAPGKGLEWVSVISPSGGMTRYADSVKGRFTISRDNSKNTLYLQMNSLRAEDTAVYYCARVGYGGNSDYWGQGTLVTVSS VL: DIQMTQSPSSVSASVGDRLTIICRASLDINRWLAWYQQTPGNAPKLLIHSATSLQSGVPSRFSGSGSGTDFTLTINSLQPEDFATYYCQQADSFPLTFGGGTKVEIK was 0.83 fold

Lab note: measured fold difference in affinity vs original of XPA23 light chain N30W (Fab, V domains shown) VH: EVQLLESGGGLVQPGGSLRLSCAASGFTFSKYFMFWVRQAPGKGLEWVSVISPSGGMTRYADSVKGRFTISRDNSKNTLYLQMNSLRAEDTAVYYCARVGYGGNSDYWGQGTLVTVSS VL: DIQMTQSPSSVSASVGDRLTIICRASQDIWRWLAWYQQTPGNAPKLLIHSATSLQSGVPSRFSGSGSGTDFTLTINSLQPEDFATYYCQQADSFPLTFGGGTKVEIK was 1.06 fold
